Hey, just so you know, these numbers are from PubChem BioAssay (NCI).

- System: SK-MEL-28 melanoma
- ASSAY OVERVIEW: NCI tumour cell line growth inhibition, 48 h
MEASURED METRIC: TGI

Item under review: O=C1/C(=C/c2ccc3c(c2)OCO3)SC2C=Nc3ccccc3N12 (stereo not given) . Reported TGI?
> 100 µM

# input molecule: "C1CN2CCN3CCN4CCN1[P+]243" ; wanted: its TGI
> 100 µM

Any idea what TGI was measured for "Cn1ccc(C(=O)NCCN(CCNC(=O)c2ccn(C)c(=O)c2O)CCNC(=O)c2cccc(=O)n2O)c(O)c1=O" ?
> 100 µM

Report TGI for COc1cccc(C2=NC(C(C)C)CO2)c1 (stereo not given) please.
> 100 µM

Please report the recorded TGI for "Cc1cc(N(CCC#N)CCC#N)ccc1N=Nc1ccc(C(=O)O)cc1" .
> 100 µM

For the molecule COc1ccc(C(OCC2OC(n3cc(C)c(=O)[nH]c3=O)CC2n2cc(Cn3cc(Cl)c(=O)[nH]c3=O)nn2)(c2ccccc2)c2ccccc2)cc1 (stereo not given) , what TGI is on record?
> 100 µM

Tell me the measured TGI of "Cc1ccc(NC(=O)CC2CC2)cc1-c1ccc(C(=O)NCC2CC2)cc1" , please.
> 25 µM

Entry "O=C(O)[C@@H]1CCS(=O)(=O)N1" has what TGI?
> 100 µM

Param item = COC(=O)/C=C(\C)CC(O)/C=C(\C)CCC=C(C)C (stereo not given) ; retrieve measured TGI.
> 100 µM

Would you kindly share the measured TGI for CCOC(=O)C12OC(CCC1=O)C(C(=O)OC)=C2C(=O)OC (stereo not given) ?
> 10 µM
